Sourced from the supplement of paper PMC7724964

Molecular target: DEPDC6 20-129 DEP (domain begin residue: 20, domain end residue: 129)
Experiment: phage ELISA signal ratio (GST-PRM binding over GST background); higher = stronger binding of peptide-phage to the PRM
assay endpoint: phage ELISA signal ratio
// response body must contain only the number

Qu. Item under review: EVPLWFYNIISEFHET . Reported phage ELISA signal ratio?
Ans. 13.8

Qu. Now give it for MYTFEEMWMHWKLVEM too.
Ans. 23.6

Qu. Next record, please: GDKSEWFRALLDEYLV
Ans. 21.6

Qu. Next record, please: MESAFQQVMLAYYQEL
Ans. 21.9

Qu. Now the binder DDGWMMDWWHQAQLQM
Ans. 6.22
